Exercise: for every item that follows, state its recorded relative viability.
# System: H3255
# assay_summary: relative viability (nuclei count vs DMSO), 5 days (fraction); higher = more cells survive
# test_parameters: first compound 0.1265 µM

relative viability reading for C[C@@H]1CN(CC(=O)Nc2ccc3c(c2)Cc2cccc(-c4cc(=O)cc(N5CCOCC5)o4)c2S3)C[C@H](C)O1 + Nc1ncn([C@H]2C[C@H](O)[C@@H](CO)O2)c(=O)n1 [Decitabine] (partner 2 µM) : 0.615

relative viability reading for Clc1ccc(Nc2nnc(Cc3ccncc3)c3ccccc23)cc1 [Vatalanib] + CC(=O)Nc1cccc(-n2c(=O)n(C3CC3)c(=O)c3c(Nc4ccc(I)cc4F)n(C)c(=O)c(C)c32)c1 [Trametinib] (partner 0.02 µM) : 0.606

relative viability reading for C[C@@H]1CN(CC(=O)Nc2ccc3c(c2)Cc2cccc(-c4cc(=O)cc(N5CCOCC5)o4)c2S3)C[C@H](C)O1 + COc1cccc2cc(-c3nc([C@H]4CC[C@H](C(=O)O)CC4)n4ncnc(N)c34)[nH]c12 [OSI-027] (partner 0.5 µM) : 0.624

relative viability reading for Clc1ccc(Nc2nnc(Cc3ccncc3)c3ccccc23)cc1 [Vatalanib] + CC(=O)c1c(C)c2cnc(Nc3ccc(N4CCNCC4)cn3)nc2n(C2CCCC2)c1=O [Palbociclib] (partner 0.5 µM) : 0.273

All figures here come from the supplement of paper PMC10307832.
